B1: Paraneoplastic antigen-like protein 5 (Homo sapiens), Q96PV4 (parent)
chain: MALTLLEDWCKGMDMDPRKALLIVGIPMECSEVEIQDTVKAGLQPLCAYRVLGRMFRREDNAKAVFIELADTVNYTTLPSHIPGKGGSWEVVVKPRNPDDEFLSRLNYFLKDEGRSMTDVARALGCCSLPAESLDAEVMPQVRSPPLEPPKESMWYRKLKVFSGTASPSPGEETFEDWLEQVTEIMPIWQVSEVEKRRRLLESLRGPALSIMRVLQANNDSITVEQCLDALKQIFGDKEDFRASQFRFLQTSPKIGEKVSTFLLRLEPLLQKAVHKSPLSVRSTDMIRLKHLLARVAMTPALRGKLELLDQRGCPPNFLELMKLIRDEEEWENTEAVMKNKEKPSGRGRGASGRQARAEASVSAPQATVQARSFSDSSPQTIQGGLPPLVKRRRLLGSESTRGEDHGQATYPKAENQTPGREGPQAAGEELGNEAGAGAMSHPKPWET

variants of: B1; conditions: with zfy26_human ZFYVE26, Q68DK2
Sequence (Q68DK2 whole entry): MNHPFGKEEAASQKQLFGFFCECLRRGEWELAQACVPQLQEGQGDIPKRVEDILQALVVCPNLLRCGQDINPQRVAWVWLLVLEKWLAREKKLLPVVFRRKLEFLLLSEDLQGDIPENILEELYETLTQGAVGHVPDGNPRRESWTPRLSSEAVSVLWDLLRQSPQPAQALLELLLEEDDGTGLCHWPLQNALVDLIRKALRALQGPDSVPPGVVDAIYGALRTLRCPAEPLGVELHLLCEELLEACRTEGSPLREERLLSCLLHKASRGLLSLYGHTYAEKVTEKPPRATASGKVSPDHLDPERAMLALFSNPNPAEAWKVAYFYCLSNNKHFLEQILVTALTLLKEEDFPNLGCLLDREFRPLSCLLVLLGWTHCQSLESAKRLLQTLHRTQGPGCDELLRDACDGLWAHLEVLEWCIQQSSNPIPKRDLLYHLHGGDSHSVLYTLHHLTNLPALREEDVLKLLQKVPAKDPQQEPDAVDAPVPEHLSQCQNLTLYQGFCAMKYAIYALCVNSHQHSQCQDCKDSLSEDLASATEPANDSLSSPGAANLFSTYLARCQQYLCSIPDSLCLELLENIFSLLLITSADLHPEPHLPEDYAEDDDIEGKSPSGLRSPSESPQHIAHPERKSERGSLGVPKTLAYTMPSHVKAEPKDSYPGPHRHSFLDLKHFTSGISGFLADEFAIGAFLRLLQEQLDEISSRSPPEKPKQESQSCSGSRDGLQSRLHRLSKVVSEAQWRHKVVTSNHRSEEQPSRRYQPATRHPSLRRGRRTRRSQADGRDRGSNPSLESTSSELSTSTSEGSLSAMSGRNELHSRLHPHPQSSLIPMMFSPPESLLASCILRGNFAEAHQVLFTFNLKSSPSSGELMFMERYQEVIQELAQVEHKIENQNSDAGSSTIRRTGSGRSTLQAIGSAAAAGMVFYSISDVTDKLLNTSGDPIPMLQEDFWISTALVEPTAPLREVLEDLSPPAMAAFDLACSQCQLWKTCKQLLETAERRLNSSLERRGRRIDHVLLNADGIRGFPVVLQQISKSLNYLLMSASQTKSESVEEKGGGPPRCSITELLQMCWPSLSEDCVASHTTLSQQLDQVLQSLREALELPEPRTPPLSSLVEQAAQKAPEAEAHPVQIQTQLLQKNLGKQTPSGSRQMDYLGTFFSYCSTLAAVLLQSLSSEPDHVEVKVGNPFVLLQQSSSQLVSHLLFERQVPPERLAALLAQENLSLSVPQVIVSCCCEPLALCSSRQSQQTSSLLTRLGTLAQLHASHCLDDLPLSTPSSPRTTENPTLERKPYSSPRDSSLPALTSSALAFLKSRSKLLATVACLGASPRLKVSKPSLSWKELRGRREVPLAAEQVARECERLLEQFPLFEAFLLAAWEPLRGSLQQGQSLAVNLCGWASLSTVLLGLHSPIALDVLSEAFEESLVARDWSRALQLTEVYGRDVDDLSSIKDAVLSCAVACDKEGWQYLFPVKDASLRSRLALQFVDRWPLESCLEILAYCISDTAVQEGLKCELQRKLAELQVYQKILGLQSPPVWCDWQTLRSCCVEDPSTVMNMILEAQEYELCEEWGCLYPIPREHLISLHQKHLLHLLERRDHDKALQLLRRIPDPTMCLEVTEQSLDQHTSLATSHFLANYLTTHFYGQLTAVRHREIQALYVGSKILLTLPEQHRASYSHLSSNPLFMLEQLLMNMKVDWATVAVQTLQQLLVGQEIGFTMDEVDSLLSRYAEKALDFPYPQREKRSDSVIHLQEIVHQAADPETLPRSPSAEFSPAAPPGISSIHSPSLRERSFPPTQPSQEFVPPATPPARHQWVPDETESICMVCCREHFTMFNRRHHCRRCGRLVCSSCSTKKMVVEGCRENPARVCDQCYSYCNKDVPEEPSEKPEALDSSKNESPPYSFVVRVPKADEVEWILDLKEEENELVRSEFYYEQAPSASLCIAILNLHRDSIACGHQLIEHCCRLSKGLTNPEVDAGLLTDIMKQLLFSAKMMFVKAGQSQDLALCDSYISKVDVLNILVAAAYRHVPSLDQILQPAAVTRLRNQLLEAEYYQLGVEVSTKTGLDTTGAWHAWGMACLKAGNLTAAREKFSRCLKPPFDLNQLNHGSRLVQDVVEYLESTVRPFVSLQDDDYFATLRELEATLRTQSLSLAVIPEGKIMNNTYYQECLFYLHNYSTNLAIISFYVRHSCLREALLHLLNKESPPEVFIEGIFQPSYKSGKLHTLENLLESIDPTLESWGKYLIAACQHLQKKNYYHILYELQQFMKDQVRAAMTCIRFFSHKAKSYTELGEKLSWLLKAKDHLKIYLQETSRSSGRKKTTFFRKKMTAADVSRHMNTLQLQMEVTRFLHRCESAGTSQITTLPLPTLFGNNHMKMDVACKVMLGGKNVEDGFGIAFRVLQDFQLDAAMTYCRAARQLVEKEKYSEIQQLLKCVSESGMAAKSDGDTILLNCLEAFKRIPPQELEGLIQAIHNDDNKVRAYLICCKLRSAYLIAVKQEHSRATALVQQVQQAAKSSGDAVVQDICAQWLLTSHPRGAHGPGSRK
reported-metric: effect of a mutation on the interaction

T261A | with no effect
V274M | with no effect
R312Q | with no effect
